- Assay explanation: SMARCA2 (BRM) function activators, primary screen, cell-based, luminescence, high throughput (AID 652017)
- Conditions used: MG213 cells, MMTV-luciferase reporter, dexamethasone, overnight; at 9.1 µM
Screen size: about 370,000 compounds; about 3,800 (1%) were called active. Cut-off read from the data, not from the text of the source: active = activation above about 7.8%; inactive = the rest. The full list was thinned out, with actives kept by preference.
Classes used: Y (active), N (inactive)

Compound	Cat
CC(C)CCNC(=O)c1ccc2c(Cl)c3c(nc2c1)CCC3	Y
O=C(NC1CCC1)c1ccc(C#Cc2cccc(F)c2)c[n+]1[O-]	N
C[C@H](CO)N1C[C@H](C)[C@@H](CN(C)S(=O)(=O)c2ccc(F)cc2)Oc2ccc(NC(=O)CCC(F)(F)F)cc2C1=O	N
CCc1cc2c(=O)c(-c3ccon3)c(N)oc2cc1OC	Y
COc1ccc(N2CCN(CCNS(=O)(=O)c3ccc([N+](=O)[O-])cc3)CC2)cc1	N
CC(=O)Cn1ncc(N2CCOCC2)c(Br)c1=O	N
C=CCN1C(=O)[C@@H](CC(=O)N2CCN(C(=O)OCC)CC2)[C@]2(C(=O)OCC)CCCCC/C=C/12	N
CCCN1C(=O)C(Cc2nc3ccccc3c(=O)n2-c2ccccc2)c2cc(C)ccc21 (stereo not given)	Y
O=C(Cn1ncc(N2CCCC2)c(Br)c1=O)c1ccc(Cl)cc1	Y
Cc1ccc(S(=O)(=O)NCc2nc3ccccc3c(=O)n2N)cc1	N
